Values compiled from patent US20120245137A1.

pIC50 values, listed per item
target: Human Cav 2.2 channels (Homo sapiens, UniProt Q00975); experiment: Fluorescent assay for CaV2.2 channels using potassium depolarization (VIPR/FLIPR); assay type: cell-based; conditions: FLIPR data; closed state; read-out: CAv2.2 IC50 Closed
Reminder that pIC50 is minus the log10 of a molar concentration.

Completed entries (count: 4):
Compound | Subject Of Test | pIC50
CC(C)([C@H]1C[C@@H](NS(=O)(=O)c2ccc(F)c(Cl)c2)C1)S(=O)(=O)c1cccc(C(F)(F)F)c1 | Human Cav 2.2 channels (Homo sapiens, UniProt Q00975) | 5.00
CC(C)([C@H]1C[C@@H](NC(=O)c2ccc(Cl)cc2S(C)(=O)=O)C1)S(=O)(=O)c1cccc(C(F)(F)F)c1 | Human Cav 2.2 channels (Homo sapiens, UniProt Q00975) | 5.00
O=C(NC[C@H]1C[C@H](S(=O)(=O)c2cccc(C(F)(F)F)c2)C1)c1ccc(C(F)(F)F)cc1 | Human Cav 2.2 channels (Homo sapiens, UniProt Q00975) | 5.45
CC(C)([C@H]1C[C@@H](NS(=O)(=O)c2ccc(C(F)(F)F)nc2)C1)S(=O)(=O)c1cccc(C(F)(F)F)c1 | Human Cav 2.2 channels (Homo sapiens, UniProt Q00975) | 5.13

Specify measured pIC50 for CC(C)S(=O)(=O)c1cc(C(F)(F)F)cnc1C(=O)N[C@H]1C[C@H](C(C)(C)S(=O)(=O)c2cc(F)cc(C(F)(F)F)c2)C1 .
5.00

Specify measured pIC50 for CC(C)([C@H]1C[C@@H](Nc2ccnc(C(F)(F)F)n2)C1)S(=O)(=O)c1cc(F)cc(C(F)(F)F)c1 .
5.30

Specify measured pIC50 for CC(C)(C1CC(CNC(=O)c2ccc(F)c(Cl)c2)C1)S(=O)(=O)c1cccc(C(F)(F)F)c1 (stereo not drawn) .
5.89

Specify measured pIC50 for CC(C)([C@H]1C[C@@H](NC(=O)c2cnc(C(F)(F)F)nc2)C1)S(=O)(=O)c1cccc(C(F)(F)F)c1 .
5.00

Specify measured pIC50 for O=C(NC[C@H]1C[C@H](S(=O)(=O)c2cccc(Cl)c2)C1)c1ccc(OCC(F)(F)F)nc1 .
5.00

Specify measured pIC50 for O=C(NC[C@H]1C[C@H](S(=O)(=O)c2cccc(OC(F)(F)F)c2)C1)c1ccc(C(F)(F)F)cc1 .
5.68

Specify measured pIC50 for CC(C)([C@H]1C[C@@H](CNc2cc(C(F)(F)F)n[nH]2)C1)S(=O)(=O)c1cccc(C(F)(F)F)c1 .
5.35

Specify measured pIC50 for CC(C)([C@H]1C[C@@H](NS(=O)(=O)c2ccc(C(F)(F)F)nc2)C1)S(=O)(=O)c1cc(F)cc(C(F)(F)F)c1 .
5.22

Specify measured pIC50 for CC(C)([C@H]1C[C@H](NC(=O)c2ccc(C(F)(F)F)cn2)C1)S(=O)(=O)c1cccc(C(F)(F)F)c1 .
5.73

----------
molecular target: T-type calcium channel (Homo sapiens); test: T-type channel blocking, FLIPR data (Table 6); format: cell-based; settings: CAv3.2, inactivated state, read-out: CAv3.2 IC50 Inact.
Sequence (O95180 whole entry): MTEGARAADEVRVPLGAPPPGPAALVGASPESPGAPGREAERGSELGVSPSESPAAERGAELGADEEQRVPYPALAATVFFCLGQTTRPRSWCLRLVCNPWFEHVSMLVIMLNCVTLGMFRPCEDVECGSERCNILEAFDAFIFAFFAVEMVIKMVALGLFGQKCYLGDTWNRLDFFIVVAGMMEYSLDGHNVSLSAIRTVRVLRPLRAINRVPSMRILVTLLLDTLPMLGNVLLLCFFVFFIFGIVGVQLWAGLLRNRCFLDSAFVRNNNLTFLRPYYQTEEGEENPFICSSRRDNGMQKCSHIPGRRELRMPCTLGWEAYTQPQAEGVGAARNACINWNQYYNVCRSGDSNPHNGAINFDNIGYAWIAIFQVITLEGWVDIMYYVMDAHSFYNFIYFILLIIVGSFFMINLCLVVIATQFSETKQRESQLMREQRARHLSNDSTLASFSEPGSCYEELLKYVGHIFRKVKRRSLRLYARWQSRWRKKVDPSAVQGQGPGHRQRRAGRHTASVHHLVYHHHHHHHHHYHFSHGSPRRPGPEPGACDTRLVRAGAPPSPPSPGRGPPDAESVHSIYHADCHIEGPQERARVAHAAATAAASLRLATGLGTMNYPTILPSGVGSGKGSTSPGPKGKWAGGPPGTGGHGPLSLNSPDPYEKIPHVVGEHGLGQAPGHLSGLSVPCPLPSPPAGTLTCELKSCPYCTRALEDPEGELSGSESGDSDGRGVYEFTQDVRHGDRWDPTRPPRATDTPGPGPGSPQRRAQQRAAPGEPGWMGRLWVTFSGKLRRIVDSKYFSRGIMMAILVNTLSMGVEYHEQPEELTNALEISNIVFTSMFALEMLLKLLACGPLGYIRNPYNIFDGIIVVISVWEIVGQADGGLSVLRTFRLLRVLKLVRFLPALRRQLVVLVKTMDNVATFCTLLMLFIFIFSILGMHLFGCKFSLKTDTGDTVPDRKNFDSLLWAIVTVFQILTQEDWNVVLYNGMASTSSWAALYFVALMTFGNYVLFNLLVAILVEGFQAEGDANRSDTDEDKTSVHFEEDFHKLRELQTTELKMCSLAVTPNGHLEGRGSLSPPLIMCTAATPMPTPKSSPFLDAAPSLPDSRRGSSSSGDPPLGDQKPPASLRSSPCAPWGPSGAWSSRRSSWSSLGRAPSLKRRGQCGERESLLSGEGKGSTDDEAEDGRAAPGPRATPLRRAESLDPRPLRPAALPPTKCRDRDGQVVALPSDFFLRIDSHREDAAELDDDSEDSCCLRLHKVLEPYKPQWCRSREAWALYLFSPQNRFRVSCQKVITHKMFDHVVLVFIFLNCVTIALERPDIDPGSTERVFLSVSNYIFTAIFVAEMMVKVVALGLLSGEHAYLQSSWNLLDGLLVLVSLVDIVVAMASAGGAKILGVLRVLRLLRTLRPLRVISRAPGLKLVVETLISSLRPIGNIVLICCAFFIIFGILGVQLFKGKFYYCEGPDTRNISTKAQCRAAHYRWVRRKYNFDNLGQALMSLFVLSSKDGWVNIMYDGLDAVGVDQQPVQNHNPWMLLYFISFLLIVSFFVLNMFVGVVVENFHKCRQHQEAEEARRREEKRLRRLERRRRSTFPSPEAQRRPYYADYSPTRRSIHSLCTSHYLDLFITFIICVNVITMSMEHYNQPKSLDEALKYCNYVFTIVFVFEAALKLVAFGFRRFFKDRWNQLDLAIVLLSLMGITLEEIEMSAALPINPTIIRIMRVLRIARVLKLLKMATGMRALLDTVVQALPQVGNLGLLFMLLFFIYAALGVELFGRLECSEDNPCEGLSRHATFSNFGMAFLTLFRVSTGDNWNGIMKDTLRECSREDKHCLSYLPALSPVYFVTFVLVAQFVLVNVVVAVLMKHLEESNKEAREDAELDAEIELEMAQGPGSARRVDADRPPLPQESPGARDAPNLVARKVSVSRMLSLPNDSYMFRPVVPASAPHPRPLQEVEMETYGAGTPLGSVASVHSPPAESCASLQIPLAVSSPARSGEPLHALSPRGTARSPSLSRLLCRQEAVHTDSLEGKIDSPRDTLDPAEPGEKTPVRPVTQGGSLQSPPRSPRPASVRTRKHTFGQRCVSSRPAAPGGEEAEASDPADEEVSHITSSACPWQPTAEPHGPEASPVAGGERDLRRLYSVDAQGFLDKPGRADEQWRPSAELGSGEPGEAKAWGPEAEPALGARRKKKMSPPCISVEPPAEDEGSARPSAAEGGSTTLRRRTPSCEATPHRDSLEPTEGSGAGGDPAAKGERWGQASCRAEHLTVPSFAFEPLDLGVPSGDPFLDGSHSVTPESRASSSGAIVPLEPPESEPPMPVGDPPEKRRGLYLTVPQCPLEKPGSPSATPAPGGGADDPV
Reported Endpoint: IC50 (µM)
Your answer is read as µM, so omit the unit and give the number.

Completed entries (count: 5):
Smiles Record | Endpoint Unit | IC50
CC(C)([C@H]1C[C@@H](C(=O)Nc2cc(C(F)(F)F)n[nH]2)C1)S(=O)(=O)c1cccc(C(F)(F)F)c1 | µM | 2.29
CC(C)([C@H]1C[C@H](C(=O)Nc2ccc(Cl)cn2)C1)S(=O)(=O)c1cccc(C(F)(F)F)c1 | µM | 1.71
O=C(c1ccc(C(F)(F)F)cn1)N1CC(CS(=O)(=O)c2cc(F)cc(C(F)(F)F)c2)C1 | µM | 10
CC(C)(C[C@H]1C[C@@H](NC(=O)[C@H]2CCCC[C@@H]2N)C1)S(=O)(=O)c1cccc(C(F)(F)F)c1 | µM | 10
CC(C)([C@H]1C[C@H](NS(=O)(=O)c2ccc(C(F)(F)F)nc2)C1)S(=O)(=O)c1cc(F)cc(C(F)(F)F)c1 | µM | 2.54

Specify measured IC50 for CC(C)([C@H]1C[C@H](C(=O)Nc2ccc(C(F)(F)F)cc2Cl)C1)S(=O)(=O)c1cccc(C(F)(F)F)c1 .
0.96

Specify measured IC50 for CC(C)([C@H]1C[C@@H](NC(=O)c2ccc(Cl)cc2S(C)(=O)=O)C1)S(=O)(=O)c1cccc(C(F)(F)F)c1 .
10
